- SYSTEM TESTED: Dual specificity protein kinase CLK4 (Homo sapiens, UniProt Q9HAZ1); note: in the data inactive means no Kd found up to 30 µM
- Sequence (Q9HAZ1 whole entry): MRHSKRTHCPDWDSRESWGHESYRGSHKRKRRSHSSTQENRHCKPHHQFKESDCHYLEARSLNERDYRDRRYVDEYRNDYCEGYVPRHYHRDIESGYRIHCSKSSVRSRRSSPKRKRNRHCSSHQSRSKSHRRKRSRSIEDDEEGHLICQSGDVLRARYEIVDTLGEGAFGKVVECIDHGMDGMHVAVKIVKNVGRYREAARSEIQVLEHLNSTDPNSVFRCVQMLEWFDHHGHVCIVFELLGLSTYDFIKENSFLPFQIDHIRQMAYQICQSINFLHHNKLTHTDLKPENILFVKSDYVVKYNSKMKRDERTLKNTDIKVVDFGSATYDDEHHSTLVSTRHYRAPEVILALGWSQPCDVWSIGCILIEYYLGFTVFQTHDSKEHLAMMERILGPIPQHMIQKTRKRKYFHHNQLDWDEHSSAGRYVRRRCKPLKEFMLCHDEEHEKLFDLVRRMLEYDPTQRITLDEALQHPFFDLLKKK
Active and inactive are the calls of the source.
Write down one outcome, taken from Yes (active), No (inactive)

For `Cc1nc2cc(-c3nn(C(C)C)c4ncnc(N)c34)ccc2o1` , what call appears in the results of this test?
No

And then Cc1nc(Nc2n[nH]c3c2CN(C(=O)N[C@H](CN(C)C)c2ccccc2)C3(C)C)c2sccc2n1 [PF-03758309] , what is it?
Yes

And then Cc1cnc(NC(=O)Nc2cc(Br)c(C)cc2OC[C@@H]2CNCCO2)cn1 [RABUSERTIB] , what is it?
No

And then COc1c(OCCCN2CCOCC2)ccc2c1N=C(NC(=O)c1cnc(N)nc1)N1CCN=C21 [COPANLISIB] , what is it?
No

And then Cn1cc(-c2cnn3c(N)c(Br)c([C@@H]4CCCNC4)nc23)cn1 [SCH-900776] , what is it?
No

And then COc1cc2c(Nc3ccc(Cl)c(Cl)c3F)ncnc2cc1OC[C@@H]1C[C@@H]2CN(C)C[C@@H]2C1 [TESEVATINIB] , what is it?
No

And then COc1ccc(S(=O)(=O)N(C(C)=O)c2ccccc2/C=C/c2cc[n+]([O-])cc2)cc1 [HMN-214] , what is it?
No
